- protocol: soluble on expression in E. coli; label from the status in PepcDB or PDB records

- biopolymer.sequence: "MAQHTYDEESVQELLGWAKKMLETKNYPTEKYQVNACTSIIDGKLYLESLISMISKNWENPTFHPTIEQLWEYREKWEGQKE"
  soluble on expression in E. coli: "not soluble"
- biopolymer.sequence: "MGSDKIHHHHHHMKEVLEVLPKTMKQLVENCKQYDALEEIRVRIGRPLECIAHGEVFFYDYIVTADDAIYLLNKLSHFSIYTMEEELKRGYVTLRGGHRIGLAGKVITEKSTVKMIRDVSSFNIRIARQKIGIAEPLLPYLYESRWLNTMVIGPPQTGKTTLLRDVARCMSQGVSTSKIPSCKVGIVDERSEIAGCVKGIPQYDFGTRVDVLDACPKAEGMMMMIRSMSPDILIVDEIGRKEDSEAIMEAVHAGVQLFISAHGFSYDDVVKRPSLKAVLELGIFDRFVELSKARGPGTVMQVKDKYGKPVLPHRKAESVC"
  soluble on expression in E. coli: "not soluble"

---

- protocol: soluble on expression in E. coli; label from the status in PepcDB or PDB records
observable: soluble on expression in E. coli

- biopolymer.sequence: "MAHHHHHHMRYFRVLHNFDAQDGVELTVKKGETVFTAESEVREGWIKVEVLHDPRRRGFVPFNYLRETTESLAREQEEGSRGIGRESGGMSTASMTLQPSAVPRETSVTFTSGALDYGDRLQNMYGVGASAPSPVSQRSRSAEQGMKRVNENSMATATKGAVMEPLLPSQKVPSSPPSGADPVPERSLLNNPSAIVEAFMKNELHFKQLIRQRQDALAQMRTTVEEAMSELAACKEKNFTLARKLRELDQSVEKERGRWKERIMEEKAYISRSMSSE"
  soluble on expression in E. coli: "soluble"
- biopolymer.sequence: "GPGSMINWCEGCSNRNNNTQPELVLGNETFVTHGVAAPDKGSKYPLGGPFRLRESRTGNYITDKELFQDHWTLLYFGFSKCAEVCPSTLRFITDVMKACDEKLAGDKNLSTEAARLQAVFLSVDSRRDTPEVLEGFVSKYDPRVRGLTGTSKEIEQAARAWRVYYSSIDETDEEKSAREAKGVPMVGADDDTYQLDHSSAIYLVGVDGKLKDFFFKEMGVADAVGRLEVHLQDVYGFKDTRG"
  soluble on expression in E. coli: "not soluble"
- biopolymer.sequence: "MGSDKIHHHHHHMLNQQWLTTFIKLVELGHFTHTAEQLFMTQSGVSQQIKKLEQQAGAPLLNRIGKGFELTQAGMALLAHAQALVQQQAELLASFHQDNAYSGECKLACSGSLAMLIYPKLIDRQLQYPELKMSLEAAPNQRIIDRVLDNSIDVGIITQEFAHPELSLRLLGSQRLCLVLPNVWEGRLPRLIEYNFLTELGMIDHPDGMHYWQHFVECHFPQHLPQASKIKRLSYVNQLSQILLPVAKGLGFAVLPEFAIKQVSARDGVLEGLFRVPDASLSAHVASESLYLIQKRHRPLALRYQEIITLIKGLIS"
  soluble on expression in E. coli: "not soluble"
- biopolymer.sequence: "MGSDKIHHHHHHMTEKIRVAVVGAAGAFGMKHLDGLMNIPDVEVTVVSGTRLEPTQAVAEKYGVENAVVGLDAVLERDDVDAVILATPTGLHASQTQAVLAAGKHVQVEIPLADSIVDAEAALEAAESSNRVAMVGHTRRFNPSHQLVHNRIASGEFHVQQMDVQTYFFRRTNTNAKGEARSWTDHLLWHHAAHTVDLFAYQAGKIVHANAIQGPIHPELGIAMDMSIQLKSESGAICTLSLSFNNNGPFGTFFRYIGDTETYIARYDDLYNGREEPIDVSHVAVSMNGIELQDREFISAIREGREPNSSLRHVIDCYRVLGSLEKQLS"
  soluble on expression in E. coli: "not soluble"
- biopolymer.sequence: "MGTFREEGSVSSGTKQEFHTGKLVTTKGDKELLIDNEKVTSGHTTTTRRSCSKVITKTVTNADGRTETTKEVVKSEDGSDCGDADFDWHHTFPSRGNLDDFFHRDKDDFFTRSSHEFDGRTGLAPEFAALGESGSSSSKTSTHSKQFVSSSTTVNRGGSAIESKHF"
  soluble on expression in E. coli: "soluble"

In the following, a different sequence is considered.
Could you please provide reported soluble on expression in E. coli for MREAMYWKPLGDGRVRCELCPLRCIIDEGKRGSCKIRINKGGKLYTLNYGKVSSIALDPIEKKPLFHFWPGSCALSIGTVGCNMHCKHCQNWEISQADESFPYLQDATPEAIVSLAKHYECESIAYTYNEPTIWYEFVLDTAKLARKEGLNNILVTNGYINEEPFRELAPYIDAMNIDIKAFDDKFYMKIASVPSGEPSRRIAEIAKKEFKIHVELTYLIIPTLNDKEEEIREFARWVVENLGDDTPVHFSRFFPHYKLLNLPPTPIETLEKAYKIAKEEGLKFVYLGNVPGHPGENTYCPSCGKLLIERWGFDIIRYDIVDGKCKYCGEKIPIVGKYQKKKYRGMWW ? Thanks!
soluble
